Exercise: for every item that follows, state its recorded log10(IC50).
# TARGET: PDE7A (Homo sapiens)
# Construct: purchased BPS Bioscience 60373
# TEST DETAILS: In vitro PDE7A inhibitory activity assay (fluorescence polarization PDE7A Assay Kit, BPS Bioscience)
# Assay type: biochemical
# COND: fluorescence polarization kit
Units before log transform: µM; reported quantity: IC50; transform: log10.

In: Output measured log10(IC50) for this item: Clc1ccc2nc(Cl)nc(NN=Cc3cccnc3)c2c1
Out: -0.46

In: Output measured log10(IC50) for this item: Clc1nc(NN=Cc2c[nH]c3ccc(Br)cc23)c2ccccc2n1
Out: -0.32

In: Output measured log10(IC50) for this item: Cc1ccc([N+](=O)[O-])cc1S(=O)(=O)N(C)C [BRL50481, reference compound]
Out: -1.47

In: Output measured log10(IC50) for this item: Clc1ccc2nc(Cl)nc(NN=Cc3ccnc4ccccc34)c2c1
Out: -0.20

In: Output measured log10(IC50) for this item: Clc1ccc2nc(Cl)n3c(-c4cccnc4)nnc3c2c1
Out: -0.85

In: Output measured log10(IC50) for this item: OCc1ccc(-c2nnc3c4cc(Cl)ccc4nc(Cl)n23)o1
Out: 0.13

In: Output measured log10(IC50) for this item: Clc1ccc2nc(Cl)nc(NN=Cc3c[nH]c4ccc(Br)cc34)c2c1
Out: -0.82

In: Output measured log10(IC50) for this item: Clc1nc2ccccc2c2nnc(-c3cccnc3)n12
Out: -0.49

In: Output measured log10(IC50) for this item: Clc1nc(NN=Cc2ccnc3ccccc23)c2ccccc2n1
Out: -0.60

----------
Exercise: for every item that follows, state its recorded melting point.

In: Output measured melting point for this item: Clc1nc(NN=Cc2c[nH]c3ccc(Br)cc23)c2ccccc2n1
Out: 238 to 240 °C

In: Output measured melting point for this item: Clc1ccc2nc(Cl)nc(NN=Cc3cccnc3)c2c1
Out: 198 to 200 °C

In: Output measured melting point for this item: OCc1ccc(C=NNc2nc(Cl)nc3ccccc23)o1
Out: > 280 °C

In: Output measured melting point for this item: Clc1nc2ccccc2c2nnc(-c3ccnc4ccccc34)n12
Out: 220 to 222 °C

In: Output measured melting point for this item: Clc1nc2ccccc2c2nnc(-c3cccnc3)n12
Out: > 280 °C

In: Output measured melting point for this item: Clc1ccc2nc(Cl)n3c(-c4cccnc4)nnc3c2c1
Out: 219 to 221 °C

In: Output measured melting point for this item: Clc1nc(NN=Cc2ccnc3ccccc23)c2ccccc2n1
Out: 205 to 207 °C

In: Output measured melting point for this item: Clc1nc(NN=Cc2cccnc2)c2ccccc2n1
Out: < 280 °C

In: Output measured melting point for this item: OCc1ccc(-c2nnc3c4cc(Cl)ccc4nc(Cl)n23)o1
Out: < 280 °C

In: Output measured melting point for this item: Clc1nc2ccccc2c2nnc(-c3c[nH]c4ccc(Br)cc34)n12
Out: 200 to 202 °C

----------
# TARGET: PDE7A (Homo sapiens, UniProt Q13946)
# Construct: purchased BPS Bioscience 60373
# Sequence (Q13946 whole entry): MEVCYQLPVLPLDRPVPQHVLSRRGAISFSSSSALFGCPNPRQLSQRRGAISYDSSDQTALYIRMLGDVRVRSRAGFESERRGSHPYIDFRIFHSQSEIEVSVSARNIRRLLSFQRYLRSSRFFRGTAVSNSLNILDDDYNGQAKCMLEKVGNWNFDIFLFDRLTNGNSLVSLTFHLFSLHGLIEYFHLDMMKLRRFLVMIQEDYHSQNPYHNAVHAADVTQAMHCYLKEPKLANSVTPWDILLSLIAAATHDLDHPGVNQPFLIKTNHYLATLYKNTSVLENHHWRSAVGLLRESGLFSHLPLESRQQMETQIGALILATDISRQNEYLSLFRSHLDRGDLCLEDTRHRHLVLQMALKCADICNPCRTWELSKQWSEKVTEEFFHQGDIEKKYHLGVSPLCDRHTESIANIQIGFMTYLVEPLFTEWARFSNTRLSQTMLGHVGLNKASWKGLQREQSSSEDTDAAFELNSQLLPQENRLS
# TEST DETAILS: In vitro PDE7A inhibitory activity assay (fluorescence polarization PDE7A Assay Kit, BPS Bioscience)
# Type: biochemical
# COND: fluorescence polarization kit
True if IC50 is below 0.4 µM. False if not; exact matches included in False.

In: I'd appreciate it if you could check whether OCc1ccc(-c2nnc3c4ccccc4nc(Cl)n23)o1 has IC50 smaller than 0.4 µM.
Out: True

In: I'd appreciate it if you could check whether OCc1ccc(C=NNc2nc(Cl)nc3ccc(Cl)cc23)o1 has IC50 smaller than 0.4 µM.
Out: False

In: I'd appreciate it if you could check whether Clc1nc2ccccc2c2nnc(-c3ccnc4ccccc34)n12 has IC50 smaller than 0.4 µM.
Out: False

In: I'd appreciate it if you could check whether OCc1ccc(C=NNc2nc(Cl)nc3ccccc23)o1 has IC50 smaller than 0.4 µM.
Out: False

In: I'd appreciate it if you could check whether Clc1nc(NN=Cc2cccnc2)c2ccccc2n1 has IC50 smaller than 0.4 µM.
Out: True

In: I'd appreciate it if you could check whether Clc1nc2ccccc2c2nnc(-c3c[nH]c4ccc(Br)cc34)n12 has IC50 smaller than 0.4 µM.
Out: True

In: I'd appreciate it if you could check whether Clc1ccc2nc(Cl)n3c(-c4ccnc5ccccc45)nnc3c2c1 has IC50 smaller than 0.4 µM.
Out: False
